measurement-type: melting point

In [3]: df
Out[3]:
                              smiles_record  measurement_type        endpoint_value
0  COc1ccc(-c2nnc3c4ccccc4c(Nc4ccc(C#N)cc4)nn23)cc1     melting point                314 °C
1  COc1ccc(-c2nnc3c4ccccc4c(Nc4ccc(NS(=O)(=O)c5cccc(OC)c5)cc4)nn23)cc1     melting point                290 °C
2  COc1ccc(-c2nnc3c4ccccc4c(Nc4cccc(NS(=O)(=O)c5ccc(C)cc5)c4)nn23)cc1     melting point  336 to 346 °C (dec.)

### Prompt Which melting point value is on record for COc1ccc(-c2nnc3c4ccccc4c(Nc4cccc(NS(=O)(=O)c5cn(C)cn5)c4)nn23)cc1 ?
### Response 184 to 187 °C

### Prompt Which melting point value is on record for COc1ccc(-c2nnc3c4ccccc4c(Nc4cccc(S(=O)(=O)N5CCCCC5)c4)nn23)cc1 ?
### Response 275 to 280 °C

### Prompt Which melting point value is on record for COc1ccc(-c2nnc3c4ccccc4c(Nc4ccc(-c5nn[nH]n5)cc4)nn23)cc1 ?
### Response 281 to 284 °C

### Prompt Which melting point value is on record for COc1ccc(-c2nnc3c4ccccc4c(Nc4cccc(S(N)(=O)=O)c4)nn23)cc1 ?
### Response 342 to 349 °C

### Prompt Which melting point value is on record for COc1ccc(-c2nnc3c4ccccc4c(Nc4cccc(NS(=O)(=O)c5ccc(C(C)=O)cc5)c4)nn23)cc1 ?
### Response 352 to 354 °C

### Prompt Which melting point value is on record for COc1ccc(-c2nnc3c4ccccc4c(Nc4cccc(NS(=O)(=O)c5cccs5)c4)nn23)cc1 ?
### Response 327 to 331 °C

### Prompt Which melting point value is on record for COc1ccc(-c2nnc3c4ccccc4c(Nc4cccc(NS(=O)(=O)c5ccc(N6CCOCC6)nc5)c4)nn23)cc1 ?
### Response 323 to 329 °C

Data origin, for the record: patent US8106047B2
